Study system: ProH (Bacillus subtilis)
Construct: full-length; pMCSG68, N-terminal His6-TEV tag removed; E. coli BL21 Gold; homodimer by SAXS
Sequence (P0CI77 1-257): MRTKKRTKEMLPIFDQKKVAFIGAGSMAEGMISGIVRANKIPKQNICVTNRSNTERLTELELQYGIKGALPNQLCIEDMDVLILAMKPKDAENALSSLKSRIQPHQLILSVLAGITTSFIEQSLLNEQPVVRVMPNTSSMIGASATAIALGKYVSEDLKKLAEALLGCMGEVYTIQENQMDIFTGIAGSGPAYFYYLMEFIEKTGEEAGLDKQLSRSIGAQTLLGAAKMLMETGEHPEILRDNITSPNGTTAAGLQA
Assay notes: NAD(P)H oxidation at […] nm
Observation type: IC50

O=C(O)[C@@H]1CCCN1 [proline]
41.4 mM
NC(=O)c1ccc[n+]([C@@H]2O[C@H](COP(=O)(O)OP(=O)(O)OC[C@H]3O[C@@H](n4cnc5c(N)ncnc54)[C@H](O)[C@@H]3O)[C@@H](O)[C@H]2O)c1 [NAD^+]
44.5 mM
NC(=O)c1ccc[n+]([C@@H]2O[C@H](COP(=O)(O)OP(=O)(O)OC[C@H]3O[C@@H](n4cnc5c(N)ncnc54)[C@H](OP(=O)(O)O)[C@@H]3O)[C@@H](O)[C@H]2O)c1 [NADP^+]
0.66 mM

Ref: paper PMC5539093
